FYI, the data here is from ChEMBL document CHEMBL1201862.

Quick list: IC50 per entry.
experiment: cells; assay type: functional
Active and inactive are the calls of the source. How the calls were made is not given here.

Example molecules with recorded IC50:
O=C(Nc1ccccn1)c1ccc([N+](=O)[O-])o1 ... 13.6 µM (active)
O=C(COc1ccccc1)NCCSCc1ccc(Cl)cc1 ... 22.2 µM (active)
O=C(OCc1c(Cl)cccc1Cl)c1ccccn1 ... 10.6 µM (active)
CCOC(=O)CN(C#N)c1nc(N(C)C)nc(N(C)C)n1 ... 26.9 µM (active)
O=C(N/N=C\c1ccc([N+](=O)[O-])s1)c1cncc(Br)c1 ... 12.6 µM (active)
CCOC(=O)Cn1c2ccc(F)cc2c2nc(C)sc21 ... 14.2 µM (active)
CC1=NNC(=O)/C1=C\c1cn(-c2ccccc2)nc1-c1ccccc1 ... 20.6 µM (active)
c1ccc(C2=Nc3ccccc3OC2)cc1 ... 7.95 µM (active)

Query: # input molecule: O=c1c2ccc(Cl)cc2nc(-c2ccc([N+](=O)[O-])cc2)n1O ; wanted: its IC50
Result: 8.17 µM (active)

Query: Same again, this time with CCC(C)NCCOc1ccc(C(C)(C)c2ccccc2)cc1 (stereo not given)
Result: 11.7 µM (active)
